Target: T1, human IL-23 (human, UniProt P29460 23-328; Q9NPF7 20-189)
T1 construct: Recombinant (Ebioscience); HIS-tagged in flow cytometry, biotinylated in some assays; also called hIL-23; rhIL-23
T1 sequence 1: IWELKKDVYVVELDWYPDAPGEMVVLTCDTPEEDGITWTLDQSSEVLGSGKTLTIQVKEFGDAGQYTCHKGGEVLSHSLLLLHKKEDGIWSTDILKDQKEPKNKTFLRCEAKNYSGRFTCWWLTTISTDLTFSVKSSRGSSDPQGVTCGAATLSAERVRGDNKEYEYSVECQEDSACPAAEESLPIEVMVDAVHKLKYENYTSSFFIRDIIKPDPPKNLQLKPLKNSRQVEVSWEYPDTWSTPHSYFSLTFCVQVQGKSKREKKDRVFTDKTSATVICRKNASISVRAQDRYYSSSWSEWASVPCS
T1 sequence 2: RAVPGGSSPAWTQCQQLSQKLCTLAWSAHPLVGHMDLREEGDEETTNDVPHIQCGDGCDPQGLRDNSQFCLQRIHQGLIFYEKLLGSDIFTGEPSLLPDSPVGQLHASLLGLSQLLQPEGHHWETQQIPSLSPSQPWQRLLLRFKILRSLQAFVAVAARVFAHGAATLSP
Assay: SPR screen, crude scFv captured via FLAG
# koff values compiled below
Your answer is read as s⁻¹, so omit the unit and give the number.

Assign koff to the following record: scFv BZ-G10 (scFv, scFv-80 variant: VL Q27R; not shown: proprietary C-terminal FLAG tag) scFv: QVQLVQSGAEVKKPGASVKVSCKASGYTFTDYYLHWVRQAPGQGLEWMGWIDPENGDTEYAPKFQGRVTMTTDTSTSTAYMELRSLRSDDTAVYYCNANKELRYFDVWGQGTMVTVSSGGGGSGGGGSGGGGSEIVMTQSPATLSVSPGERATLSCRASRSISINLHWYQQKPGQAPRLLIYFASQSISGIPARFSGSGSGTEFTLTISSLQSEDFAVYYCQQSNSFPLTFGGGTKVEIKR
0.00036

Assign koff to the following record: scFv CE-B1 (scFv, scFv-80 variant: VH F29L; not shown: proprietary C-terminal FLAG tag) scFv: QVQLVQSGAEVKKPGASVKVSCKASGYTLTDYYLHWVRQAPGQGLEWMGWIDPENGDTEYAPKFQGRVTMTTDTSTSTAYMELRSLRSDDTAVYYCNANKELRYFDVWGQGTMVTVSSGGGGSGGGGSGGGGSEIVMTQSPATLSVSPGERATLSCRASQSISINLHWYQQKPGQAPRLLIYFASQSISGIPARFSGSGSGTEFTLTISSLQSEDFAVYYCQQSNSFPLTFGGGTKVEIKR
0.00028

Assign koff to the following record: scFv BB-A9 (scFv, scFv-80 variant: VH T28A, T68S; not shown: proprietary C-terminal FLAG tag) scFv: QVQLVQSGAEVKKPGASVKVSCKASGYAFTDYYLHWVRQAPGQGLEWMGWIDPENGDTEYAPKFQGRVSMTTDTSTSTAYMELRSLRSDDTAVYYCNANKELRYFDVWGQGTMVTVSSGGGGSGGGGSGGGGSEIVMTQSPATLSVSPGERATLSCRASQSISINLHWYQQKPGQAPRLLIYFASQSISGIPARFSGSGSGTEFTLTISSLQSEDFAVYYCQQSNSFPLTFGGGTKVEIKR
0.00045

Assign koff to the following record: scFv AX-G4 (scFv, scFv-80 variant: VL S26P; not shown: proprietary C-terminal FLAG tag) scFv: QVQLVQSGAEVKKPGASVKVSCKASGYTFTDYYLHWVRQAPGQGLEWMGWIDPENGDTEYAPKFQGRVTMTTDTSTSTAYMELRSLRSDDTAVYYCNANKELRYFDVWGQGTMVTVSSGGGGSGGGGSGGGGSEIVMTQSPATLSVSPGERATLSCRAPQSISINLHWYQQKPGQAPRLLIYFASQSISGIPARFSGSGSGTEFTLTISSLQSEDFAVYYCQQSNSFPLTFGGGTKVEIKR
0.00036

Assign koff to the following record: scFv CR-B1 (scFv, scFv-80 variant: VH D85E; not shown: proprietary C-terminal FLAG tag) scFv: QVQLVQSGAEVKKPGASVKVSCKASGYTFTDYYLHWVRQAPGQGLEWMGWIDPENGDTEYAPKFQGRVTMTTDTSTSTAYMELRSLRSEDTAVYYCNANKELRYFDVWGQGTMVTVSSGGGGSGGGGSGGGGSEIVMTQSPATLSVSPGERATLSCRASQSISINLHWYQQKPGQAPRLLIYFASQSISGIPARFSGSGSGTEFTLTISSLQSEDFAVYYCQQSNSFPLTFGGGTKVEIKR
0.00026

Assign koff to the following record: scFv CP-A6 (scFv, scFv-80 variant: VH Y59H; not shown: proprietary C-terminal FLAG tag) scFv: QVQLVQSGAEVKKPGASVKVSCKASGYTFTDYYLHWVRQAPGQGLEWMGWIDPENGDTEHAPKFQGRVTMTTDTSTSTAYMELRSLRSDDTAVYYCNANKELRYFDVWGQGTMVTVSSGGGGSGGGGSGGGGSEIVMTQSPATLSVSPGERATLSCRASQSISINLHWYQQKPGQAPRLLIYFASQSISGIPARFSGSGSGTEFTLTISSLQSEDFAVYYCQQSNSFPLTFGGGTKVEIKR
0.00019
